- Test system: Mycobacterium tuberculosis
- ASSAY OVERVIEW: Antibacterial activity against Mycobacterium tuberculosis H37Rv assessed as growth inhibition at 6.25 ug/mL by BACTEC 460 radiometric assay relative to control
- Format: functional
- EXPERIMENTAL SETUP: read-out: GI
Note to self: values exactly at 20% are Fulfilled. So inhibition of growth at 6.25 µg/mL at or above 20% is Fulfilled, below is Not fulfilled.

Query string: Decide: is the reported value of inhibition of growth at 6.25 µg/mL for "CCNC(=O)OCCOc1nsc2nc(C)cc(C)c12" equal to or greater than 20%?
Result string: Not fulfilled

Query string: One more molecule: "Cc1cc(C)c2c(=O)n(CCOC(=O)Nc3ccccc3)sc2n1"
Result string: Not fulfilled

Query string: One more molecule: "Cc1cc(C)c2c(=O)n(CC(=O)N3CCN(C)CC3)sc2n1"
Result string: Fulfilled

Query string: One more molecule: "COc1ccc(CN(Cn2sc3nc(C)cc(C)c3c2=O)Cn2sc3nc(C)cc(C)c3c2=O)cc1OC"
Result string: Not fulfilled

Query string: One more molecule: "Cc1cc(C)c2c(=O)n(CCOCCOc3ccccc3)sc2n1"
Result string: Fulfilled

Query string: One more molecule: "Cc1cc(C)c2c(OCCOC(=O)NC(C)(C)C)nsc2n1"
Result string: Not fulfilled

Query string: One more molecule: "Cc1cc(C)c2c(=O)n(CN(Cc3ccccn3)Cn3sc4nc(C)cc(C)c4c3=O)sc2n1"
Result string: Not fulfilled

Query string: One more molecule: Cc1cc(C)c2c(=O)n(CC(O)CN3CCC(Cc4ccccc4)CC3)sc2n1 (configuration not stated)
Result string: Fulfilled

Query string: One more molecule: "Cc1cc(C)c2c(=O)n(CCCN3CCN(c4cccc(Cl)c4)CC3)sc2n1"
Result string: Fulfilled

Query string: One more molecule: "Cc1cc(C)c2c(=O)n(CN(Cc3ccccc3)Cn3sc4nc(C)cc(C)c4c3=O)sc2n1"
Result string: Not fulfilled

Query string: One more molecule: Cc1cc(C)c2c(=O)n(CC(O)CN3CCN(c4cccc(C(F)(F)F)c4)CC3)sc2n1 (configuration not stated)
Result string: Fulfilled

Query string: One more molecule: "CCNC(=O)OCCn1sc2nc(C)cc(C)c2c1=O"
Result string: Not fulfilled

* * *

- ASSAY OVERVIEW: Selectivity index, ratio of IC50 for African green monkey Vero cells to MIC99 for Mycobacterium tuberculosis H37Rv
- Assay type: functional
OBSERVABLE: Selectivity Index
Give the figure by itself; no unit, no explanation.

Query string: Entry under review: Cc1cc(C)c2c(=O)n(CC(O)CN3CCN(c4cccc(C(F)(F)F)c4)CC3)sc2n1 (stereo not given) . Reported Selectivity Index?
Result string: 2.69

Query string: One more compound: "Cc1cc(C)c2c(=O)n(CCCN3CCN(c4cccc(Cl)c4)CC3)sc2n1"
Result string: 0.53

Query string: One more compound: "Cc1cc(C)c2c(=O)n(CC(=O)N3CCN(C)CC3)sc2n1"
Result string: 1.12

Query string: One more compound: Cc1cc(C)c2c(=O)n(CC(O)CN3CCC(Cc4ccccc4)CC3)sc2n1 (stereo not given)
Result string: 0.25

Query string: One more compound: "Cc1cc(C)c2c(=O)n(CCOCCOc3ccccc3)sc2n1"
Result string: 0.68
